These measurements were taken from patent US9169215B2.

Listed here are compounds together with their documented inhibition at 30 µM.
# test target: LPA3 (Homo sapiens)
# assay explanation: Calcium flux assay using FLIPR, LPA3 antagonist activity
# Type: cell-based
Please respond with the number in % and leave the unit unwritten.

[
  {
    "compound": "COc1cc(C(=O)/C(=N\\C2CCCC2)n2ncc(C#N)c2N)cc(OC)c1OC [Example 12]",
    "reported value": 14
  }
]

// returns reported inhibition at 30 µM for input COc1cc(OC)c(C(=O)/C(=N\C2CCCC2)n2ncc(C#N)c2N)cc1OC [Example 6]
7.5

Return reported inhibition at 30 µM; argument: COc1cc(OCc2ccccc2)ccc1C(=O)/C(=N\C1CCCC1)n1ncc(C#N)c1N [Example 11]
23

Data request, read-out inhibition at 30 µM, for COc1ccc(C(=O)/C(=N\C2CCCCC2)n2ncc(C#N)c2N)c(OC)c1 [Example 9]
29

Fill in the blank: the reported inhibition at 30 µM of COc1ccc(C(=O)/C(=N\C(C)C)n2ncc(C#N)c2N)c(OC)c1 [Example 10] is ____.
21

Fill in the blank: the reported inhibition at 30 µM of COc1ccc(C(=O)/C(=N\C2CCCC2)n2ncc(C#N)c2N)c(OC)c1 [Example 1] is ____.
22

---

# test target: human recombinant LPA1 Lysophospholipid receptor (Homo sapiens, UniProt Q92633)
# Sequence (Q92633 whole entry): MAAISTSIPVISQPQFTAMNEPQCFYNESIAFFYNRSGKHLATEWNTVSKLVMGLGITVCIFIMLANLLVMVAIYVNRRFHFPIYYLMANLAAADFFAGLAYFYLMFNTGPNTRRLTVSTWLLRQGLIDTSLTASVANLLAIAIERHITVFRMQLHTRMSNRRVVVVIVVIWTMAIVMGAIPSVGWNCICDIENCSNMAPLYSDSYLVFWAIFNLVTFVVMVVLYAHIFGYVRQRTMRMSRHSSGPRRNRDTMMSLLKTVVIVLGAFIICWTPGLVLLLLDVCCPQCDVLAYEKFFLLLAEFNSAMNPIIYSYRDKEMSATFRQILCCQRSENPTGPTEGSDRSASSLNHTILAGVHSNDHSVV
# assay explanation: Calcium flux assay using FLIPR, LPA1 antagonist activity
# Assay type: cell-based
# condition label: @ 30 μM
metric: inhibition at 30 µM (%)
# value in %; strip the unit string

Example entries and their recorded answers appear below.
[
  {
    "compound string": "COc1cc(OCc2ccccc2)ccc1C(=O)/C(=N\\C1CCCC1)n1ncc(C#N)c1N",
    "unit of measurement": "%",
    "inhibition at 30 µM": 48
  },
  {
    "compound string": "N#Cc1cnn(/C(=N/C2CCCC2)C(=O)c2ccc(Br)cc2)c1N",
    "unit of measurement": "%",
    "inhibition at 30 µM": 96
  },
  {
    "compound string": "COc1cc(F)ccc1C(=O)/C(=N\\C1CCCC1)n1ncc(C#N)c1N",
    "unit of measurement": "%",
    "inhibition at 30 µM": 49
  },
  {
    "compound string": "COc1ccc(C(=O)/C(=N\\C2CCCC2)n2ncc(C#N)c2N)c(OC)c1",
    "unit of measurement": "%",
    "inhibition at 30 µM": 98
  },
  {
    "compound string": "COc1cc2ccccc2cc1C(=O)/C(=N\\C1CCCC1)n1ncc(C#N)c1N",
    "unit of measurement": "%",
    "inhibition at 30 µM": 77.5
  }
]

Continue with the molecule presented below.
Reported inhibition at 30 µM for `COc1ccc(C(=O)/C(=N\C2CCCCC2)n2ncc(C#N)c2N)c(OC)c1` : what is it?
84.9

---

# test target: LPA3 (Homo sapiens, UniProt Q9UBY5)
# Sequence (Q9UBY5 whole entry, species assumed): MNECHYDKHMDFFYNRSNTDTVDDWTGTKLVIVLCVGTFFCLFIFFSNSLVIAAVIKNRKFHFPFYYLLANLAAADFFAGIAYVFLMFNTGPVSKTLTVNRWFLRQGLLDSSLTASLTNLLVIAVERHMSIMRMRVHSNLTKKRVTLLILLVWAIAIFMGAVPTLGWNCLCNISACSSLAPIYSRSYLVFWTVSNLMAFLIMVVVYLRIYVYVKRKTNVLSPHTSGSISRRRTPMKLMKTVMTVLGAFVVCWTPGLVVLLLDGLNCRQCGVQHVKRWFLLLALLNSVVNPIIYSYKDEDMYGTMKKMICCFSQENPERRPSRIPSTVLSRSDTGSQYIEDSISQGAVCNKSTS
# assay explanation: Calcium flux assay using FLIPR, LPA3 antagonist activity
# Format: cell-based
metric: inhibition at 30 µM (%)
Numbers only; they are read as %.

[
  {
    "compound": "COc1cc(F)ccc1C(=O)/C(=N\\C1CCCC1)n1ncc(C#N)c1N [Example 4]",
    "test target": "LPA3 (Homo sapiens, UniProt Q9UBY5)",
    "inhibition at 30 µM [%]": 3
  },
  {
    "compound": "CCc1ccc(C(=O)/C(=N\\C2CCCC2)n2ncc(C#N)c2N)cc1 [Example 2]",
    "test target": "LPA3 (Homo sapiens, UniProt Q9UBY5)",
    "inhibition at 30 µM [%]": 13
  },
  {
    "compound": "COc1cc2ccccc2cc1C(=O)/C(=N\\C1CCCC1)n1ncc(C#N)c1N [Example 7]",
    "test target": "LPA3 (Homo sapiens, UniProt Q9UBY5)",
    "inhibition at 30 µM [%]": 2
  }
]

With those in mind, consider the next compound.
Record request: inhibition at 30 µM value, item COc1cc2c(cc1C(=O)/C(=N\C1CCCC1)n1ncc(C#N)c1N)CCC2 [Example 8]
19.1

---

# test target: human recombinant LPA1 Lysophospholipid receptor (Homo sapiens)
# assay explanation: Calcium flux assay using FLIPR, LPA1 antagonist activity
# Assay type: cell-based
# condition label: @ 30 μM
metric: inhibition at 30 µM

[
  {
    "compound": "COc1cc2c(cc1C(=O)/C(=N\\C1CCCC1)n1ncc(C#N)c1N)CCC2 [Example 8]",
    "inhibition at 30 µM": "78.4%"
  }
]

// returns reported inhibition at 30 µM for input COc1ccc(C(=O)/C(=N\C2CCCC2)n2ncc(C#N)c2N)c(F)c1 [Example 5]
99.8%

Field request: inhibition at 30 µM | item: CCc1ccc(C(=O)/C(=N\C2CCCC2)n2ncc(C#N)c2N)cc1 [Example 2]
100%

I'd like to know its inhibition at 30 µM. The compound in question is COc1ccc(C(=O)/C(=N\C(C)C)n2ncc(C#N)c2N)c(OC)c1 [Example 10]
88.2%
